Attribution: PubChem BioAssay (NCI)

Record form. Attribute: TGI. Fill in for each entry.
# Tested on: SK-MEL-28 melanoma
# experimental-details: NCI tumour cell line growth inhibition, 48 h
One number for each entry, in µM.

{"columns": ["structure-as-smiles", "TGI / µM"],
 "data": [
  ["Cc1c(-c2nnc(-c3cc(Cl)c(Cl)cc3Cl)o2)nnn1-c1ccnc2c(C(F)(F)F)cccc12", 75.3],
  ["O=C(NNC(=O)c1nsc2ccccc12)c1ccc(Cl)cc1", 36.1]
]}

May I ask what TGI has been recorded for COc1cc(Nc2nc3cc(C(F)(F)F)ccc3nc2C)cc(OC)c1OC ? 25.3

###

For each record, write down the corresponding log10 of TGI.
# System: HCT-116 colon
# experimental-details: NCI tumour cell line growth inhibition, 48 h
Could you please treat all values as log10 of TGI in µM?

// solved cases for log10 of TGI follow
{"columns": ["compound", "outcome-measure", "recorded-measurement"],
 "data": [
  ["CC(C)(C)C(=O)/C=C/c1cccc(Oc2ccccc2)c1", "log10 of TGI", 1.49],
  ["COc1ccc(N=CN(C)C)c(C)c1", "log10 of TGI", 1.29],
  ["Clc1ccc2c(NCCNc3nc(N4CCCC4)nc4ccccc34)ccnc2c1", "log10 of TGI", 0.01]
]}

Items follow; give log10 of TGI for each.
1. COc1cccc(Nc2nc(N)nc(N)c2N=O)c1
2. N#CC1(C#N)C(c2ccccc2)C=CC(c2ccc([N+](=O)[O-])cc2)C1(C#N)C#N (stereo unspecified)

1. 1.58
2. 1.14

###

Answer each item with its documented TGI.
# Tested on: NCI-H522 lung
# experimental-details: NCI tumour cell line growth inhibition, 48 h
Answers are plain numbers, in µM.

Worked examples, 3 compounds total:
{"columns": ["compound", "system-tested", "readout-units", "TGI"],
 "data": [
  ["CCCCCC/C=C1\\CCC(CN(C)C)C1=O (stereo not given)", "NCI-H522 lung", "µM", 6.28],
  ["Nc1nc(-c2ccccc2)cc(-c2ccc(Cl)cc2)c1-c1nc2ccccc2o1", "NCI-H522 lung", "µM", 30.6],
  ["CCOC(=O)c1cc(Br)c(-c2onc(C)c2Br)n1C", "NCI-H522 lung", "µM", 72.7]
]}

API: the following record is the query input.
Reported TGI for CC1=CC(=O)c2ccc(C)cc2C1=O : what is it? 18.5

###

# System: NCI-H522 lung
# experimental-details: NCI tumour cell line growth inhibition, 48 h
Would you mind telling me the reported TGI of each entry?
Answers are plain numbers, in µM.

Recorded results for 3 compounds are shown here.
{"columns": ["compound", "readout-units", "TGI"],
 "data": [
  ["Nc1nc(-c2ccc(Cl)cc2)cc(-c2ccccc2)c1-c1nc2ccccc2o1", "µM", 33.9],
  ["O=C(C=Nc1ccccc1C(=O)[O-])c1cccs1.O=C(C=Nc1ccccc1C(=O)[O-])c1cccs1.[Zn+2]", "µM", 47.9],
  ["N#CSc1ccc(S(N)(=O)=O)cc1", "µM", 26.5]
]}

Hi! Can you tell me TGI for each of these compounds?
1. CC(C)C1COC(c2ccc3ccccc3c2-c2c(O[Si](C)(C)C(C)(C)C)ccc3ccccc23)=N1 (stereo not given)
2. C=CCSSc1ncnc2c1ncn2C1OC(CO)C(O)C1O (stereo not given)
3. N#CCc1nc(-c2cc3c(ccc4ccccc43)oc2=O)cs1

1: 29.8; 2: 10.7; 3: 27.4
